Values from the RNAGym collection of RNA variant scans (doi:10.7554/elife.80360)

I'd be grateful if you could share measured self-cleavage for these entries.
B1: CPEB3 Ribozyme (parent)
chain: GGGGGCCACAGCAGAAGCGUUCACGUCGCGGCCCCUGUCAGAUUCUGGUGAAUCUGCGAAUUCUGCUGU

# Variants of: B1
# Test method notes: self-cleavage, relative activity (ratio to wild type); higher = more cleavage; co-transcriptional
Give bare numbers.

{"Mutation string": "C39A A51U", "Measured metric": "self-cleavage", "Test value": 0.728}
{"Mutation string": "C39G C57U", "Measured metric": "self-cleavage", "Test value": 0.327}
{"Mutation string": "C35U C45A", "Measured metric": "self-cleavage", "Test value": 0.985}
{"Mutation string": "G56U U64A", "Measured metric": "self-cleavage", "Test value": 0.612}
{"Mutation string": "A40G C54A", "Measured metric": "self-cleavage", "Test value": 0.701}

Dear reader, for each entry below, please note its self-cleavage.
1. C32G C57U
2. G28A G68A
3. C32U C35A
4. U36C U55A
5. G17U A52U
6. A40C U44C
7. G37A C39G
8. C35U A40C

1: 0.234; 2: 0.294; 3: 0.25; 4: 0.888; 5: 0.429; 6: 0.368; 7: 0.277; 8: 0.46

For each entry beneath this line, provide reported self-cleavage.
1. A23U C33U
2. C9A G31U
3. C9A G65A

[0.998, 0.961, 0.955]

Hey, quick one: what's self-cleavage for each of these?
1. G30A C57G
2. G2C G47A
3. G1A G2U
4. G47U G65U
5. C7A C22A
6. G50A U69A
7. C24A U43C
8. C9U U69C

1: 0.247; 2: 0.0652; 3: 0.332; 4: 0.946; 5: 0.0549; 6: 0.982; 7: 0.631; 8: 1.07

Batch lookup, self-cleavage per entry.
1. C29U U38A
2. A42C A51C
3. A8U C57U
4. A16C C18U
5. C29A G56A
6. G19A A59U
7. G41A

1. 0.2
2. 0.832
3. 0.361
4. 0.128
5. 0.492
6. 0.169
7. 0.906

Okay, here is my list. What is self-cleavage for each of these?
1. C32U U67C
2. G1C C18U
3. G2A A42G

[0.959, 0.167, 0.196]

Hi! Can you tell me self-cleavage for each of these variants?
1. A10U U62C
2. U21G G30A
3. C32U U61A
4. G11U U38A
5. G2U U69C
6. A10C C54G
7. U46A G65C

1. 0.757
2. 0.221
3. 0.893
4. 0.687
5. 0.208
6. 0.993
7. 0.601

Count: 4. Required value per item: self-cleavage.
1. G31A G65A
2. C33A A59G
3. G25C U36A
4. C29A U46A

1. 0.711
2. 0.738
3. 0.201
4. 0.845

For every item below, please supply its self-cleavage.
1. G5A C12U
2. G65C C66A
3. G48C U62A
4. A60G G68C

1. 0.931
2. 0.788
3. 0.994
4. 0.889
